# study-target: T1, Aca1 (Pseudomonas aeruginosa phage JBD30, UniProt L7P845 1-79)
# T1 sequence: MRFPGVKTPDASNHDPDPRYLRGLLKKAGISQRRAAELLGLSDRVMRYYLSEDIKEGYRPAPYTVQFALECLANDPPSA
# test-method-notes: ITC
// reported Kd per item
Output spec: scalar in µM, unitless text.

                                     binder  numeric_readout
0  21-bp IR2 (dsDNA) DNA 1: ATTAGGCACAATGTGCCTAAT DNA 2: ATTAGGCACATTGTGCCTAAT           0.0741
1  21-bp IR1 (dsDNA) DNA 1: AAGCGGCACACTGTGCCTATT DNA 2: AATAGGCACAGTGTGCCGCTT           0.0532
2  23-bp IR2 (dsDNA) DNA 1: AATTAGGCACAATGTGCCTAATC DNA 2: GATTAGGCACATTGTGCCTAATT           0.0322

Then this binder:
Enquiry: # query: Kd of entry 19-bp IR2 blunt (dsDNA) DNA 1: TTAGGCACAATGTGCCTAA DNA 2: TTAGGCACATTGTGCCTAA
Return: 0.741
